B1: NLV3 TCR beta chain (CDR3β only) (parent)
chain: ASSPTGGSPSPLH

Variants of: B1
Experimental details: T-Switch: Jurkat TCRβ−/− cells expressing a CDR3 saturation-mutagenesis library, stained with two peptide-HLA-A*02:01 tetramers (original and novel peptide) plus anti-CD3, FACS-sorted into four gates, gDNA sequenced
Condition set: with both tetramers (double-negative gate, binds neither): HLA-A*02:01 with … and with …, tetramers 1 µg/mL, 30 min on ice, SP, DP and SW gates expanded about 10 days between rounds ('two to three rounds of selection' in the Methods), gate DN: OPPOSITE: higher = more of the variant in the gate that binds neither peptide = LESS binding (or no expression; inferred). Fold enrichment of the CDR3 variant in one FACS gate of a two-tetram, unresolved parent, parent is a CDR3 fragment, scale: fold enrichment, numbering: sequential-on-construct, sequence starts at 1
Would you mind labelling by enrichment? At or over 0.8 is Yes, under is No.

Examples with answers:
mutation_annotation="[…] (CDR3 as printed); P11W derived by comparing it with the table's wild-type CDR3 ASSPTGGSPSPLH" label=No
mutation_annotation="[…] (CDR3 as printed); G7D derived by comparing it with the table's wild-type CDR3 ASSPTGGSPSPLH" label=Yes
mutation_annotation="[…] (CDR3 as printed); S3A derived by comparing it with the table's wild-type CDR3 ASSPTGGSPSPLH" label=No
mutation_annotation="[…] (CDR3 as printed); S10Q derived by comparing it with the table's wild-type CDR3 ASSPTGGSPSPLH" label=No
mutation_annotation="[…] (CDR3 as printed); S3K derived by comparing it with the table's wild-type CDR3 ASSPTGGSPSPLH" label=Yes
mutation_annotation="[…] (CDR3 as printed); S8H derived by comparing it with the table's wild-type CDR3 ASSPTGGSPSPLH" label=Yes
mutation_annotation="[…] (CDR3 as printed); S10H derived by comparing it with the table's wild-type CDR3 ASSPTGGSPSPLH" label=Yes
mutation_annotation="[…] (CDR3 as printed); L12G derived by comparing it with the table's wild-type CDR3 ASSPTGGSPSPLH" label=No

Now let's try a different one.
stdin: Given […] (CDR3 as printed); L12C derived by comparing it with the table's wild-type CDR3 ASSPTGGSPSPLH , state whether its enrichment is at least 0.8.
stdout: No
